- SYSTEM: CyPJ (Homo sapiens, UniProt Q9H2H8)
- Sequence (Q9H2H8 1-161): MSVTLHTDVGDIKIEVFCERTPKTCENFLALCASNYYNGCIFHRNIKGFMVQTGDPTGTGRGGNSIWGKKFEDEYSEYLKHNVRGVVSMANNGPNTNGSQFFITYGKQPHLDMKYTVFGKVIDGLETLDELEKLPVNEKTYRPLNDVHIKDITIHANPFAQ
- PROTOCOL: Surface plasmon resonance (SPR) binding assay
- SETUP_CONDITIONS: Biacore 3000, recombinant human CyPJ immobilized on CM5 chip, 20°C, compounds 0.3–10 μM
PROPERTY_MEASURED: Kd

{"columns": ["COMPOUND", "SYSTEM", "PROPERTY_MEASURED", "RECORDED_MEASUREMENT"],
 "data": [
  ["CCCOC(=O)c1ccc(N2C(=O)c3ccc(C(=O)OC(C)C(=O)c4ccc(C)cc4)cc3C2=O)cc1 (centres unmarked)", "CyPJ (Homo sapiens, UniProt Q9H2H8)", "Kd", "3410 nM"],
  ["CN(C)C(=O)Nc1ccc2nc(-c3ccco3)c(-c3ccco3)nc2c1", "CyPJ (Homo sapiens, UniProt Q9H2H8)", "Kd", "16700 nM"],
  ["COc1ccc(CCNC(=O)c2ccc(C(=O)NCCc3ccc(OC)c(OC)c3)nc2)cc1OC", "CyPJ (Homo sapiens, UniProt Q9H2H8)", "Kd", "800 nM"],
  ["CCOC(=O)c1ccc(NC(=O)c2cc(-c3ccc(C)c(C)c3)nc3ccccc23)cc1", "CyPJ (Homo sapiens, UniProt Q9H2H8)", "Kd", "14500 nM"],
  ["CCCCOc1cccc(-c2cc(C(=O)Nc3ccc4c(c3)OCCO4)c3ccccc3n2)c1", "CyPJ (Homo sapiens, UniProt Q9H2H8)", "Kd", "118000 nM"],
  ["COc1cc(/C=N/NC(=O)c2cc3c(ccc4ccccc43)o2)ccc1OCc1ccccc1F", "CyPJ (Homo sapiens, UniProt Q9H2H8)", "Kd", "43.5 nM"],
  ["C/C(=N/NC(=O)c1ccc(COc2ccc3c(c2)CCC3)o1)c1ccc(NC(=O)C2CCCC2)cc1", "CyPJ (Homo sapiens, UniProt Q9H2H8)", "Kd", "98.8 nM"],
  ["COc1cc(NC(=O)COc2ccc3ccccc3c2)ccc1NC(=O)c1cc2ccccc2o1", "CyPJ (Homo sapiens, UniProt Q9H2H8)", "Kd", "661 nM"]
]}

====

- System: SK-HEP1 HCC cells
- PROTOCOL: MTT-based cell proliferation assay, SK-HEP1
- Set-up: species or system human
- SETUP_CONDITIONS: Homo sapiens, SK-HEP1, Table 2, 48 h
pIC50: −log10 of the molar value.

{"columns": ["COMPOUND", "SYSTEM", "pIC50"],
 "data": [
  ["CN(C)C(=O)Nc1ccc2nc(-c3ccco3)c(-c3ccco3)nc2c1", "SK-HEP1 HCC cells", 4.39],
  ["O=c1[nH]cc(F)c(=O)[nH]1 [Compound 5-FU, 5-fluorouracil, reference compound]", "SK-HEP1 HCC cells", 3.75]
]}

====

A short record of IC50 observed with CyPJ PPIase (Homo sapiens, UniProt Q9H2H8) follows.

{"columns": ["MOLECULE", "SYSTEM", "IC50"],
 "data": [
  ["CCCOC(=O)c1ccc(N2C(=O)c3ccc(C(=O)OC(C)C(=O)c4ccc(C)cc4)cc3C2=O)cc1 (stereo not drawn) [ZX-J-16]", "CyPJ PPIase (Homo sapiens, UniProt Q9H2H8)", "18.5 µM"],
  ["CC(C)OC(=O)c1ccc(NC(=O)c2ccc(COc3ccccc3Cl)o2)cc1 [ZX-J-13]", "CyPJ PPIase (Homo sapiens, UniProt Q9H2H8)", "12.6 µM"],
  ["C/C(=N/NC(=O)c1ccc(COc2ccc3c(c2)CCC3)o1)c1ccc(NC(=O)C2CCCC2)cc1 [ZX-J-11]", "CyPJ PPIase (Homo sapiens, UniProt Q9H2H8)", "19.9 µM"]
]}

====

- Tested on: SK-HEP1 HCC cells
- PROTOCOL: MTT-based cell proliferation assay, SK-HEP1
- Design: species or system human
- SETUP_CONDITIONS: Table 4, ZX-J-19 derivatives, 48 h
- Method: […] Cell proliferation was determined using methylthiazolyl diphenyl-tetrazolium bromide assay (MTT; Sigma–Aldrich). […] Solution absorbance was measured at 490 nm with an absorbance microplate reader (BioTek, Winooski, VT, United States). […] The IC50 value was determined from plot of % viability against the dose of compounds added.
pIC50: −log10 of the molar value.
Some molecules, each annotated with its measured pIC50.

{"columns": ["MOLECULE", "pIC50"],
 "data": [
  ["O=C(Nc1ccc2nc(-c3ccccc3)c(-c3ccccc3)nc2c1)c1ccc(Cl)cc1 [ZX-J-19g]", 5.00],
  ["O=C(Nc1ccc2nc(-c3ccccc3)c(-c3ccccc3)nc2c1)c1cccc(Cl)c1 [ZX-J-19e]", 5.13],
  ["O=C(Nc1ccc2nc(-c3ccc[nH]3)c(-c3ccc[nH]3)nc2c1)c1ccc(Cl)cc1 [ZX-J-19t]", 4.33],
  ["O=C(Nc1ccc2nc(-c3ccccc3)c(-c3ccccc3)nc2c1)c1ccccc1 [ZX-J-19h]", 4.39],
  ["CC(C)(C)C(=O)Nc1ccc2nc(-c3ccccc3)c(-c3ccccc3)nc2c1 [ZX-J-19b]", 4.67],
  ["O=C(CCl)Nc1ccc2nc(-c3ccccc3)c(-c3ccccc3)nc2c1 [ZX-J-19d]", 4.95],
  ["O=C(Nc1ccc2nc(-c3ccco3)c(-c3ccco3)nc2c1)c1ccc([N+](=O)[O-])cc1 [ZX-J-19q]", 4.36],
  ["CCC(=O)Nc1ccc2nc(-c3ccccc3)c(-c3ccccc3)nc2c1 [ZX-J-19i]", 4.39]
]}

====

- System: QGY HCC cells
- PROTOCOL: MTT-based cell proliferation assay, QGY
- Set-up: species or system human
- SETUP_CONDITIONS: Homo sapiens, Table 4, ZX-J-19 derivatives, 48 h
pIC50: −log10 of the molar value.

{"columns": ["MOLECULE", "pIC50"],
 "data": [
  ["CCCCCCCC(=O)Nc1ccc2nc(-c3ccccc3)c(-c3ccccc3)nc2c1 [ZX-J-19j]", 4.90]
]}

====

Entries annotated with measured IC50
- Test system: QGY HCC cells
- PROTOCOL: MTT-based cell proliferation assay, QGY
- Set-up: species or system human
- SETUP_CONDITIONS: Table 4, ZX-J-19 derivatives, 48 h

{"columns": ["MOLECULE", "SYSTEM", "UNITS_TEXT", "IC50"],
 "data": [
  ["O=C(Nc1ccc2nc(-c3ccccc3)c(-c3ccccc3)nc2c1)c1cccc(Cl)c1 [ZX-J-19e]", "QGY HCC cells", "µM", 12.3],
  ["CC(=O)Nc1ccc2nc(-c3ccc[nH]3)c(-c3ccc[nH]3)nc2c1 [ZX-J-19u]", "QGY HCC cells", "µM", 32.7],
  ["O=C(Nc1ccc2nc(-c3ccco3)c(-c3ccco3)nc2c1)c1ccccc1 [ZX-J-19r]", "QGY HCC cells", "µM", 17.3],
  ["O=C(CCl)Nc1ccc2nc(-c3ccccc3)c(-c3ccccc3)nc2c1 [ZX-J-19d]", "QGY HCC cells", "µM", 17.9],
  ["O=C(Nc1ccc2nc(-c3ccccc3)c(-c3ccccc3)nc2c1)c1ccc(Cl)cc1 [ZX-J-19g]", "QGY HCC cells", "µM", 11.3],
  ["O=C(Nc1ccc2nc(-c3ccco3)c(-c3ccco3)nc2c1)c1ccc([N+](=O)[O-])cc1 [ZX-J-19q]", "QGY HCC cells", "µM", 44.3],
  ["CC(C)(C)C(=O)Nc1ccc2nc(-c3ccco3)c(-c3ccco3)nc2c1 [ZX-J-19m]", "QGY HCC cells", "µM", 82.3],
  ["CCCCCCCC(=O)Nc1ccc2nc(-c3ccco3)c(-c3ccco3)nc2c1 [ZX-J-19o]", "QGY HCC cells", "µM", 98.4],
  ["O=C(Nc1ccc2nc(-c3ccccc3)c(-c3ccccc3)nc2c1)c1ccc([N+](=O)[O-])cc1 [ZX-J-19c]", "QGY HCC cells", "µM", 37.6],
  ["CC(C)(C)C(=O)Nc1ccc2nc(-c3ccccc3)c(-c3ccccc3)nc2c1 [ZX-J-19b]", "QGY HCC cells", "µM", 26],
  ["CCCC(=O)Nc1ccc2nc(-c3ccccc3)c(-c3ccccc3)nc2c1 [ZX-J-19l]", "QGY HCC cells", "µM", 21.4],
  ["O=C(Nc1ccc2nc(-c3ccccc3)c(-c3ccccc3)nc2c1)c1ccccc1 [ZX-J-19h]", "QGY HCC cells", "µM", 27.5],
  ["CC(=O)Nc1ccc2nc(-c3ccccc3)c(-c3ccccc3)nc2c1 [ZX-J-19k]", "QGY HCC cells", "µM", 199],
  ["CCCC(=O)Nc1ccc2nc(-c3ccco3)c(-c3ccco3)nc2c1 [ZX-J-19n]", "QGY HCC cells", "µM", 18],
  ["O=C(Nc1ccc2nc(-c3ccc[nH]3)c(-c3ccc[nH]3)nc2c1)c1ccc(Cl)cc1 [ZX-J-19t]", "QGY HCC cells", "µM", 42.5],
  ["O=C(CCl)Nc1ccc2nc(-c3ccc[nH]3)c(-c3ccc[nH]3)nc2c1 [ZX-J-19v]", "QGY HCC cells", "µM", 127]
]}

Taken from paper PMC5826973.
